The origin of these recorded values is paper PMC5542768.

# Measured On: CRF1R (Rattus norvegicus, UniProt P35353)
# Construct: all our experimental data are obtained from the intact full-length, fully glycosylated receptor at the membrane of the live cell; expressed in transfected cells; host or cells: HEK293 (transient co-transfection with CRE-luciferase reporter and Renilla plasmid)
# Sequence (P35353 24-415): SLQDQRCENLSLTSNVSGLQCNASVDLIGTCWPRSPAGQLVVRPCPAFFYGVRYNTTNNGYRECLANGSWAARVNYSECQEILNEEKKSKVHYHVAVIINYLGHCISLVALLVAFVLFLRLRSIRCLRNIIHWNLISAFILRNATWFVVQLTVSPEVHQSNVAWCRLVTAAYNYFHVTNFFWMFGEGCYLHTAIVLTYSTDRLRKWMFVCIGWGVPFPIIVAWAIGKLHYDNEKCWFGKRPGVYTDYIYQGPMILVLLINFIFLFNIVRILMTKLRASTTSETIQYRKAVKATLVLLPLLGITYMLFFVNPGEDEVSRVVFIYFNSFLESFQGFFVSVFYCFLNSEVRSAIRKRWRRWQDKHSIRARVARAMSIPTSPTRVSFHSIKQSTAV
# Protocol Notes: cAMP accumulation assay via luciferase reporter (ligand alone)
# Type: cell-based
# Condition Details: cAMP level via luciferase reporter, transiently transfected HEK293 cells, 3 hr stimulation at 37°C; mean ± s.e.m., at least three independent experiments, each in triplicate
Non-standard residues stand in square brackets, D forms with d. No end group written: not given here. *: point of attachment. Nle = CCCC[C@H](N)C(=O)O; ClAc = O=C(CCl)*
Below, each entry is listed alongside its reported EC50.
Readout: EC50 (nM)

> print(dat)
                                  substance  readout  recorded.result
1  SEEPPISLDLTFHLK(ClAc)REVLE[Nle]ARAEQLAQQAHSNRKL[Nle]EII-NH2 [[Lys(ClAc)^15]- ^XCRF]     EC50             0.08
2  SEEPPISLDLTFHLLREVLE[Nle]ARAEQLAQQAHK(ClAc)NRKL[Nle]EII-NH2 [[Lys(ClAc)^33]- ^XCRF]     EC50             0.04
3  SEEPPISLDLTFHLLRK(ClAc)VLE[Nle]ARAEQLAQQAHSNRKL[Nle]EII-NH2 [[Lys(ClAc)^17]- ^XCRF]     EC50             0.08
